These records show log10(IC50) for Cholinesterase (Homo sapiens).
Note the log scale: values are log10 of IC50 expressed in µM.

Here are 4 molecules together with their reported answers.
> print(dat)
                                 mol.smiles  assay.result
1  O=C(COc1ccc2occ(C(=O)c3ccccc3)c2c1)Nc1ccccc1          0.53
2  O=C(COc1ccc2occ(C(=O)c3ccc(Cl)cc3)c2c1)Nc1ccccc1          0.10
3  Cc1ccc(NC(=O)COc2ccc(O)c(-c3cn[nH]c3-c3ccc(C)cc3)c2)cc1          0.94
4  Cc1ccc(C(=O)c2coc3ccc(OCC(=O)Nc4ccccc4)cc23)cc1          1.27

Here is another molecule to look at.
Simply: `Cc1ccc(-c2[nH]ncc2-c2cc(OCC(=O)Nc3ccc(Cl)cc3)ccc2O)cc1` , Cholinesterase (Homo sapiens), log10(IC50) = 0.63

----------
experiment: Toxicity in male Wistar rat assessed as RBC level measured per million cells at 10 mg/kg, po (reference value: 6.96 +/- 0.45 /cm); format: organism-based; details: in vivo
experimental-readout: Activity

Per the record, `Cc1ccc(-c2[nH]ncc2-c2cc(OCC(=O)Nc3ccc(Cl)cc3)ccc2O)cc1` has Activity of 7.14 10^6/mm3
